molecules and their reported Einf
Tested on: Mycobacterium tuberculosis Erdman (autoluminescent)
test details: Einf, fitted maximum growth inhibition of three-drug combination (fraction); higher = stronger maximal inhibition
conditions used: in vitro model: butyrate; time point: constant (~7 days, model-specific)
quantity measured: Einf

>>> quantitative_readout("CC[C@@H](CO)NCCN[C@@H](CC)CO [ethambutol] + CC(=O)NC[C@H]1CN(c2ccc(N3CCOCC3)c(F)c2)C(=O)O1 [linezolid] + CO[C@H]1/C=C/O[C@@]2(C)Oc3c(C)c(O)c4c(O)c(c(/C=N/N5CCN(C6CCCC6)CC5)c(O)c4c3C2=O)NC(=O)/C(C)=C\\C=C\\[C@H](C)[C@H](O)[C@@H](C)[C@@H](O)[C@@H](C)[C@H](OC(C)=O)[C@@H]1C [rifapentine]")
0.886
>>> quantitative_readout("COc1nc2ccc(Br)cc2cc1[C@@H](c1ccccc1)[C@@](O)(CCN(C)C)c1cccc2ccccc12 [bedaquiline] + O=[N+]([O-])c1cn2c(n1)OC[C@@H](OCc1ccc(OC(F)(F)F)cc1)C2 [pretomanid] + CO[C@H]1/C=C/O[C@@]2(C)Oc3c(C)c(O)c4c(O)c(c(/C=N/N5CCN(C)CC5)c(O)c4c3C2=O)NC(=O)/C(C)=C\\C=C\\[C@H](C)[C@H](O)[C@@H](C)[C@@H](O)[C@@H](C)[C@H](OC(C)=O)[C@@H]1C [rifampicin]")
0.931
>>> quantitative_readout("CC(=O)NC[C@H]1CN(c2ccc(N3CCOCC3)c(F)c2)C(=O)O1 [linezolid] + COc1c(N2C[C@@H]3CCCN[C@@H]3C2)c(F)cc2c(=O)c(C(=O)O)cn(C3CC3)c12 [moxifloxacin] + CO[C@H]1/C=C/O[C@@]2(C)Oc3c(C)c(O)c4c(O)c(c(/C=N/N5CCN(C)CC5)c(O)c4c3C2=O)NC(=O)/C(C)=C\\C=C\\[C@H](C)[C@H](O)[C@@H](C)[C@@H](O)[C@@H](C)[C@H](OC(C)=O)[C@@H]1C [rifampicin]")
0.857
